// provenance: PubChem BioAssay

- Test system: XIP peptide (Xip251-270) binding
- Experiment: XIP fragment 251-270 binding compounds – biochemical, small-molecule microarray, fluorescence 635/667 nm, 0.1 µg/mL protein, primary screen (AID 1182)
- Condition label: fluorescent protein binding, 635 nm, higher = more signal, called active from +8 up or from −8 down
Is composite z-score at least -0.07? Then Criterion met. If not, Criterion not met.

C=C[C@H](OC)[C@@H](OC(=O)Nc1ccc(SC)cc1)c1ccc(OCCO)cc1 :: Criterion met
O=C1NC(=O)C2C1C=CC(C(O)c1cccs1)N2Nc1ccccn1 (centres undefined) :: Criterion met
NC(=O)[C@@]1(CCS(=O)(=O)c2ccccc2)N=C(c2ccc(OCCCO)cc2)O[C@H]1c1ccccc1 :: Criterion met
Cc1ccccc1/C=C/C=O :: Criterion met
CC(c1ccccc1)C(O)C1C=CC2C(=O)N(c3ccccc3)C(=O)C2N1Nc1ccccc1F (centres undefined) :: Criterion not met
[N-]=[N+]=Nc1ccccc1C[C@]1(C(=O)N2CCCCC2)N=C(c2ccc(OCCCO)cc2)O[C@H]1c1ccccc1N=[N+]=[N-] :: Criterion met
CN(C)CCCC[C@@H]1NC(=O)[C@H]2C[C@@H](C(=O)NCCCCCNC(=O)CS)[C@@H](c3ccc(O)cc3)N2C1=O :: Criterion not met
CC(C)C[C@@H]1NC(=O)[C@@H]2C[C@H](C(=O)NCCCCN(C)C)[C@H](c3ccc(O)cc3)N2C1=O :: Criterion not met

---

Item-by-item account of z-score
- Experiment: growth effects on S. cerevisiae YJM789 – YJM789 clinical isolate, OD600, 24 h, basal, primary screen (AID 1089);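 also: growth of clinical yeast isolate S. cerevisiae YJM 789 seeded 1000 cells per well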
- Condition label: higher = more signal, called active from +8 up or from −8 down
The source made the active and inactive calls.
Measured endpoint: z-score

[N-]=[N+]=NCc1ccccc1C[C@]1(C(=O)N2CCOCC2)N=C(c2ccc(OCCCO)cc2)O[C@H]1c1ccccc1 :: -0.432 (inactive)
C=CCC(OC(C)=O)[C@@H]1[C@@H](N(Cc2ccc(-c3cccc(C(F)(F)F)c3)o2)C(=O)c2ccc(C)cc2)c2cc(OCCCO)ccc2N1C(=O)c1ccc2ccccc2n1 (stereo partly specified) :: -0.269 (inactive)
COC(=O)[C@@]1(Cc2ccc(F)cc2)[C@H]2c3cc(C(=O)N4CCCC4)n(CCc4ccc(OC)c(Br)c4)c3C[C@H]2CN1C(=O)c1ccccc1 :: 0.0318 (inactive)
COc1ccc(C#Cc2ccc3c(c2)[C@]2(C(=O)N3)[C@H](C(=O)N3CCN(c4ncccn4)CC3)[C@H]3C(=O)O[C@H](c4ccccc4)[C@H](c4ccccc4)N3[C@@H]2c2ccc(O)cc2)cc1 :: 0.77 (inactive)
C=CCC(OC(C)=O)[C@@H]1[C@@H](N(Cc2ccc(-c3ccccc3)cc2)C(=O)c2ccc(C)cc2)c2cc(OCCCO)ccc2N1C(=O)c1ccc2ccccc2n1 (stereo partly specified) :: -2.47 (inactive)
Cc1ccc(C(C)CC(O)C2C=CC3C(=O)NC(=O)C3N2Nc2ccccn2)o1 (stereo unspecified) :: 0.633 (inactive)

---

- Experiment: probe aShh binding to arrayed compounds – biochemical, biotinylated probe, 635/667 nm fluorescence, primary screen (AID 1114);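 also: probe is biotin-labelled aShh protein from a stem cell growth factor screen; measures binding of labelled protein to compounds printed on the slide; score merges feature fluorescence at 667 nm with signal-to-noise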
- Condition label: small-molecule microarray, higher = more signal
// reported composite z-score for each item listed
Measured endpoint: composite z-score

O=[N+]([O-])c1ccc(C[n+]2ccc(CCCO)cc2)o1 :: -0.0035
COC(=O)C(CC#Cc1ccc2c(c1)[C@]1(C(=O)N2)[C@H](C(=O)N2CCCCCCC2)[C@H]2C(=O)O[C@H](c3ccccc3)[C@H](c3ccccc3)N2[C@@H]1c1ccccc1OCCO)C(=O)OC :: 3.17
C=CCC(OC(C)=O)[C@@H]1[C@@H](N(Cc2cc3ccccc3o2)C(=O)c2cccc3ccccc23)c2cc(OCCCO)ccc2N1C(=O)Cc1ccc(OC)cc1 (stereo partly drawn) :: -0.0146
C=CC[C@@]1(C(=O)NCCN2CCOCC2)N=C(c2ccc(OCCCO)cc2)O[C@@H]1c1ccccc1CN=[N+]=[N-] :: 0.0822
COc1ccc([Si](C)(C)[C@H]2[C@H](CC(=O)N3CCC[C@H]3CO)O[C@@]3(C(=O)N(Cc4cccc(N5CCC5=O)c4)c4ccccc43)[C@@H]2C)cc1 :: 0.265
COC(=O)[C@@]1(Cc2ccc(F)cc2)[C@H]2c3cc(C(=O)N(C)C)n(CCc4c[nH]c5ccc(OC)cc45)c3C[C@H]2CN1C(=O)c1ccccc1 :: 0.764
O=C1O[C@@H](c2ccccc2)[C@@H](c2ccccc2)N2[C@@H](c3ccc(O)cc3)[C@]3(C(=O)Nc4ccc(C#CCCO)cc43)[C@@H](C(=O)N3CCCCCCC3)[C@H]12 :: -0.116
O[C@@H](Cc1ccccc1)[C@@H](/C=C/c1ccccc1)NCc1ccccc1Br :: -0.17
C=CCC(OC(C)=O)[C@@H]1[C@@H](N(Cc2ccc(-c3cccc(C(F)(F)F)c3)o2)C(=O)Cc2ccc(OC)cc2)c2cc(OCCCO)ccc2N1C(=O)Cc1ccc(OC)cc1 (stereo partly drawn) :: -0.0035
C=C(/C(=C/C[C@@H](OC(=O)c1ccncc1)c1ccc(CO)o1)c1cc(C(=O)OC)ccc1OC)C(C)C :: 0.0893
CN1C(=O)C2C(C1=O)C1C=C(c3ccc(CO)cc3)C2C(C2CC2)N1Cc1sc2ccccc2c1Cl (stereo not drawn) :: 0.079
COCCOC(=O)N1C(=O)[C@@]2(c3cc(C#Cc4ccc(OC)cc4)ccc31)[C@H](C(N)=O)[C@H]1C(=O)O[C@H](c3ccccc3)[C@H](c3ccccc3)N1[C@@H]2c1ccc(O)cc1 :: -0.487
C=CCOC(=O)[C@@H]1[C@H]2C(=O)O[C@H](c3ccccc3)[C@H](c3ccccc3)N2[C@H](c2ccc(OCCOC(=O)[C@H]3C[C@H]4C(=O)N[C@@H](CCCC[N+](C)(C)C)C(=O)N4[C@H]3c3cccc(OCCO)c3)cc2)[C@@]12C(=O)Nc1ccc(I)cc12 :: -0.153
CC(=O)NCCCC[C@@H]1NC(=O)[C@@H]2C[C@H](C(=O)NCc3ccc(F)cc3)[C@H](c3ccc(O)cc3)N2C1=O :: 0.785
C=CCC(OC(C)=O)[C@@H]1[C@@H](N(Cc2cc3ccccc3o2)C(=O)c2ccc(-c3ccccc3)cc2)c2cc(OCCCO)ccc2N1C(=O)Cc1ccc2ccccc2c1 (stereo partly drawn) :: -0.0709
COCC1=C([C@H](O)CCc2ccccc2)[C@H](CO)[C@@H]2C(=O)N(Cc3ccccc3)C(=O)[C@@H]2C1 :: -0.214
CO[C@H]1O[C@H](CO)[C@@H](OC(=O)Nc2ccccc2-c2ccccc2)[C@H](OC(=O)Nc2ccccc2-c2ccccc2)[C@H]1OC(=O)Nc1ccccc1-c1ccccc1 :: 0.431
C=C(/C(=C/C[C@@H](OC(C)=O)c1ccc(CO)o1)c1cnc2ccccc2c1)C(C)C :: 0.123
C#C[C@H]1Oc2ccccc2S(=O)(=O)N2CCC[C@@H]12 :: 0.0815
C#C[C@H](O[Si](C#CCCCCCC)(C(C)C)C(C)C)c1ccccc1 :: -0.341
CCCNC(=O)[C@@]1(C)c2ccccc2C(=O)N(Cc2cc(F)cc(C(F)(F)F)c2)[C@H]1c1ccc(CO)cc1 :: 0.0469
COCCCNC(=O)[C@@]1(Cc2ccccc2I)c2ccccc2C(=O)N(Cc2ccccc2)[C@H]1c1ccc(CO)cc1 :: -0.0146
Cc1ccc(S[C@]2(C(=O)NCCCN(C)C)CC(=O)N(C(C)C)[C@@H]2c2ccc(CO)cc2I)cc1 :: -0.0035
O=C1O[C@@H](c2ccccc2)[C@@H](c2ccccc2)N2[C@@H](c3ccccc3OCCO)[C@]3(C(=O)Nc4ccc(C#CC5(O)CCCCCC5)cc43)[C@@H](C(=O)NC[C@H](O)c3ccccc3)[C@H]12 :: 0.681
CC(=O)NCCCC[C@@H]1NC(=O)[C@@H]2C[C@H](C(=O)NCCCCCC[N+](C)(C)C)[C@H](c3cccc(OCCO)c3)N2C1=O :: 0.0181
CCOC(=O)C1=CC[C@@H](c2ccccc2)N(S(=O)(=O)c2ccc(C)cc2)[C@H]1c1ccc(C#N)cc1 :: 0.385
COc1cc(CO)cc(I)c1O[C@H]1C=C(C(=O)NCCO)C[C@@H](N(CCc2cccc(F)c2)C(=O)CCC2CCCC2)[C@@H]1O :: 0.0952
C=C(COC)C(=O)CC[C@H](OC(=O)c1cccnc1)c1ccccc1OCCO :: -0.138
